The measured values listed here are drawn from PubChem BioAssay (NCI).

tested on: TK-10 renal; experiment: NCI tumour cell line growth inhibition, 48 h
Each entry below carries its reported TGI.
measured.property: TGI (µM)

{"molecule": "CC1=C(C)Cc2c(O)ccc(O)c2C1", "censoring.qualifier": "=", "quantitative.readout": 36.9}
{"molecule": "C=C1CC2(OC1=O)C(=O)Nc1ccccc12 (stereo not given)", "censoring.qualifier": "=", "quantitative.readout": 4.09}
{"molecule": "CN1C(=O)C2C(C1=O)C1(O)c3ccccc3C2(N)c2ccccc21 (stereo not given)", "censoring.qualifier": ">", "quantitative.readout": 100}
{"molecule": "CC12CCC(Br)C(C)(C)C1CC=C1C(=O)OCC1O2 (stereo not given)", "censoring.qualifier": "=", "quantitative.readout": 28.5}
{"molecule": "COc1ccccc1NC(=O)CC(=O)N/N=C/c1ccc(N(CCC#N)S(=O)(=O)c2ccccc2)cc1", "censoring.qualifier": ">", "quantitative.readout": 100}
